testMethodNotes: Drug repurposing screens with cells derived from glioblastoma tumor samples (AID 1345199); also: % is scaled to controls: 0 for no effect and ±100 for the full control effect; nearly all actives have a fitted effect of over 40% in size
assayConditions: GBM patient neurospheres viability, ATP luminescence, 48 h; at 46.1 µM (top of the series); tumour line C
Records with an inconclusive call do not appear.
Item-by-item account of activity, negative = cell killing
Give just the number in %; leave the unit off.

Solved entries (count: 2):
# molecule, activity, negative = cell killing (%)
data = [
    ("CCC(C(=O)OCCN(CC)CC)c1ccccc1 (stereo not drawn)", 0.404),
    ("CCCCCCCCCCCCCCCCCC(=O)OCC(O)CO (stereo not drawn)", 1),
]

We next turn to a different molecule, shown below.
IN: Given CCCCS(=O)(=O)N[C@@H](Cc1ccc(OCCCCC2CCNCC2)cc1)C(=O)O , state its recorded activity, negative = cell killing.
OUT: -12.3

###

Tested on: CP335
testMethodNotes: qHTS profiling for inhibitors of Plasmodium falciparum proliferation (AID 504749); also: nearly all actives have a fitted effect of over 60% in size
assayConditions: P. falciparum in erythrocytes, SYBR Green DNA, 72 h; series mostly up to 28.7 µM
Results filed as inconclusive are left out. Active and inactive are the calls of the source. Calls follow the shape of the dose curve; as a rule, active = well fitted inhibition curve with a large enough effect; inconclusive = small, poorly fitted or top-dose-only effect; inactive = flat fitted curve, though single readings scatter.
// classify into 1.0 = active, 0.0 = inactive

The examples below pair each entry with its known result.
# compound, assignedLabel
records = [
    ("Cc1c(C)n(CCN(C)C)c2ccc(C(=O)OCCN(C)C)cc12", 0.0),
    ("O=C(O)c1cc2cc(Cc3cccnc3)ccc2o1", 0.0),
    ("Cc1cc(N)c2cc(NC(=O)Nc3ccc4nc(C)cc(N)c4c3)ccc2n1", 1.0),
]

IN: Which result was noted for this compound in the test: CCOC(=O)c1cccc(N)c1
OUT: 0.0

IN: Which result was noted for this compound in the test: CCC(=O)c1c(O)cc(O)cc1O
OUT: 0.0

IN: Which result was noted for this compound in the test: CN1C2CCC1CC(OC(=O)c1c[nH]c3ccccc13)C2 (centres undefined)
OUT: 0.0

IN: Which result was noted for this compound in the test: CCn1cc(C(=O)O)c(=O)c2cnc(N3CCCC3)nc21
OUT: 0.0

IN: Which result was noted for this compound in the test: C[C@H]1C[C@H]2[C@@H]3CCC4=CC(=O)C=C[C@]4(C)[C@@]3(Cl)[C@@H](O)C[C@]2(C)[C@@]1(O)C(=O)CO
OUT: 0.0

###

System: CP269
testMethodNotes: qHTS profiling for inhibitors of Plasmodium falciparum proliferation (AID 504749); also: nearly all actives have a fitted effect of over 60% in size
assayConditions: P. falciparum in erythrocytes, SYBR Green DNA, 72 h; series mostly up to 28.7 µM
Results filed as inconclusive are left out. Activity calls are given as the source filed them. The call rests on the fitted dose curve; in most records, active means well fitted inhibition curve with a large enough effect; inconclusive means small, poorly fitted or top-dose-only effect; inactive means flat fitted curve, though single readings scatter.
// classify into true = active, false = inactive

The examples below pair each entry with its known result.
# compound, assignedLabel
records = [
    ("CCN1CCN(c2cc3c(cc2F)c(=O)c(C(=O)O)cn3C2CC2)CC1", "false"),
    ("CCOC(=O)COc1ccc2c(C)c(CCN(CC)CC)c(=O)oc2c1Cl", "false"),
    ("Cc1c(C)n(CCN(C)C)c2ccc(C(=O)OCCN(C)C)cc12", "false"),
    ("Cc1cccn2c(=O)c(-c3nnn[nH]3)cnc12", "false"),
    ("CC(=O)OCC(=O)NCCCOc1cccc(CN2CCCCC2)c1", "false"),
    ("COCc1c(C(C)C)nc(C(C)C)c(/C=C/[C@@H](O)C[C@@H](O)CC(=O)O)c1-c1ccc(F)cc1", "false"),
    ("Nc1ccc(/C=C/c2ccc(N)cc2S(=O)(=O)O)c(S(=O)(=O)O)c1", "false"),
    ("O=C1OCCN1/N=C/c1ccc([N+](=O)[O-])o1", "false"),
    ("Nc1ccc(C(=O)O)cc1", "false"),
    ("Cc1ccnc(NS(=O)(=O)c2ccc(N)cc2)n1", "false"),
]

IN: Which result was noted for this compound in the test: O=C(O)CNC(=O)c1ccccc1
OUT: false

IN: Which result was noted for this compound in the test: NC(=NCCCCCCN=C(N)/N=C(\N)Nc1ccc(Cl)cc1)/N=C(\N)Nc1ccc(Cl)cc1
OUT: true

IN: Which result was noted for this compound in the test: Cc1ncc(CSSCc2cnc(C)c(O)c2CO)c(CO)c1O
OUT: false

IN: Which result was noted for this compound in the test: CC(=O)OCC(=O)[C@@]1(OC(C)=O)[C@@H](C)C[C@H]2[C@@H]3C[C@H](F)C4=CC(=O)C=C[C@]4(C)[C@@]3(F)[C@@H](O)C[C@@]21C
OUT: false

IN: Which result was noted for this compound in the test: CCn1cc(C(=O)O)c(=O)c2cnc(N3CCCC3)nc21
OUT: false

IN: Which result was noted for this compound in the test: C1CCc2nnnn2CC1
OUT: false

IN: Which result was noted for this compound in the test: CC(=O)c1ccc2c(c1)N(CCCN1CCC(CCO)CC1)c1ccccc1S2
OUT: false

IN: Which result was noted for this compound in the test: COc1cc2c(cc1OC)C(C(C(=O)N(CCc1ccc(OC)c(OC)c1OC)CCc1ccc(OC)c(OC)c1OC)c1ccccc1)=NCC2 (stereo not drawn)
OUT: true

IN: Which result was noted for this compound in the test: Cc1c(F)c(N2CCNC(C)C2)cc2c1c(=O)c(C(=O)O)cn2C1CC1 (stereo not drawn)
OUT: false

IN: Which result was noted for this compound in the test: CC(=O)N/N=C/c1ccc([N+](=O)[O-])o1
OUT: false

IN: Which result was noted for this compound in the test: CCCCCCc1ccc(O)cc1O
OUT: false

IN: Which result was noted for this compound in the test: C[C@]12CC[C@@H]3c4ccc(O)cc4CC[C@H]3[C@@H]1CC[C@@H]2O
OUT: false

IN: Which result was noted for this compound in the test: NC(CO)(CO)CO
OUT: false

###

target: Thioredoxin reductase 1, cytoplasmic (Rattus norvegicus) (UniProt O89049)
Sequence (O89049 whole entry, looked up): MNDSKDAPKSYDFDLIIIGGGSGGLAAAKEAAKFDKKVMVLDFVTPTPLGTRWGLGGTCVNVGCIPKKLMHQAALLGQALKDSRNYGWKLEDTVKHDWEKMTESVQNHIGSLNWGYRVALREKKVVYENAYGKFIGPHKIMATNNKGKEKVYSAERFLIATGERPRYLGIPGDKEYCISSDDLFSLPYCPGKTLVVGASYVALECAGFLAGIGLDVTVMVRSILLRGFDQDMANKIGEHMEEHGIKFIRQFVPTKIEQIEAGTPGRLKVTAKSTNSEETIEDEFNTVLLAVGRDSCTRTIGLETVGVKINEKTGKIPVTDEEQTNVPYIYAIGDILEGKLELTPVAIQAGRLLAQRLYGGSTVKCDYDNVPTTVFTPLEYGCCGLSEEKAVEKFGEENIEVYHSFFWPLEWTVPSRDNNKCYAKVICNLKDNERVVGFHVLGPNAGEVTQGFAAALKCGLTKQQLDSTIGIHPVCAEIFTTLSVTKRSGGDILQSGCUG
testMethodNotes: qHTS Assay for Inhibitors of Mammalian Selenoprotein Thioredoxin Reductase 1 (TrxR1) (AID 488773);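 also: drop in NADPH fluorescence over an 8 min run after selenite addition; % is scaled to controls: 0 for no effect and ±100 for the full control effect; nearly all actives have a fitted effect of over 40% in size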
assayConditions: purified TrxR1 enzyme activity; series mostly up to 57.1 µM
Inconclusive results are not listed. Active and inactive are the calls of the source. Calls come from the whole dose curve; as a rule, active = well fitted inhibition curve with a large enough effect; inconclusive = small, poorly fitted or top-dose-only effect; inactive = no such curve, though single readings can be large or run the other way.
propertyMeasured: outcome

Solved entries (count: 4):
# molecule, propertyMeasured, result
measured = [
    ("CN1C2CCC1CC(OC(=O)c1c[nH]c3ccccc13)C2 (centres undefined)", "outcome", "inactive"),
    ("CC1(C)CCC(NC(=O)[C@@H](N)CCC(=O)O)CC1", "outcome", "inactive"),
    ("C[C@]12CC[C@@H]3c4ccc(O)cc4CC[C@H]3[C@@H]1CC[C@@H]2O", "outcome", "inactive"),
    ("COc1cc(NS(C)(=O)=O)ccc1Nc1c2ccccc2nc2ccccc12", "outcome", "inactive"),
]

IN: Given CC(=O)O[C@H]1C[C@@H]2CC[C@@H]3[C@H](CC[C@@]4(C)[C@H]3C[C@H]([N+]3(C)CCCCC3)[C@@H]4OC(C)=O)[C@@]2(C)C[C@@H]1[N+]1(C)CCCCC1 , state its recorded outcome.
OUT: inactive

IN: Given Oc1ccc(O)cc1 , state its recorded outcome.
OUT: inactive

IN: Given O=C(O)c1cc2cc(Cc3cccnc3)ccc2o1 , state its recorded outcome.
OUT: inactive

IN: Given CC(C)C[C@H]1C(=O)N2CCC[C@H]2[C@]2(O)O[C@](NC(=O)[C@@H]3C=C4c5cccc6[nH]c(Br)c(c56)C[C@H]4N(C)C3)(C(C)C)C(=O)N12 , state its recorded outcome.
OUT: inactive

###

System: CP297
testMethodNotes: qHTS profiling for inhibitors of Plasmodium falciparum proliferation (AID 504749); also: nearly all actives have a fitted effect of over 60% in size
assayConditions: P. falciparum in erythrocytes, SYBR Green DNA, 72 h; series mostly up to 28.7 µM
Inconclusive results are not listed. Activity calls are given as the source filed them. Calls follow the shape of the dose curve; as a rule, active = well fitted inhibition curve with a large enough effect; inconclusive = small, poorly fitted or top-dose-only effect; inactive = flat fitted curve, though single readings scatter. Numbered stars: 1 amine (or outer) side, 2 acyl side, 3 side chain; on linkers, the order of the positions; unused ones are H or OH. Bridge positions count the residues as written; N and C are the ends. Square brackets hold non-standard residues; d marks the D form. Peptide text beside a SMILES is read from it. I, II: the chains in the order shown. Actinocin(9to1) = Cc1c2oc3c(C)ccc(C(=O)[*:1])c3nc-2c(C(=O)[*:2])c(N)c1=O; NMeV = CN[C@H](C(=O)O)C(C)C; Sar = CNCC(=O)O
// classify into 1 (active), -1 (inactive)

The examples below pair each entry with its known result.
# molecule, target, assignedLabel
rows = [
    ("CCN(CC)CCOc1ccc(C(O)(Cc2ccc(Cl)cc2)c2ccc(C)cc2)cc1 (stereo unspecified)", "CP297", 1),
    ("COc1cc2c(cc1OC)C(C(C(=O)N(CCc1ccc(OC)c(OC)c1OC)CCc1ccc(OC)c(OC)c1OC)c1ccccc1)=NCC2 (stereo unspecified)", "CP297", 1),
    ("O=S1(=O)c2cccc3cccc(c23)N1CCCN1CCN(c2ccc(F)cc2)CC1", "CP297", -1),
    ("CC(=O)Oc1ccc(C(c2ccc(OC(C)=O)cc2)c2ccccn2)cc1", "CP297", -1),
    ("Cc1ncc(CSSCc2cnc(C)c(O)c2CO)c(CO)c1O", "CP297", -1),
    ("CCCCCCCCCCCCCCCC[N+](C)(C)CCN(Cc1ccc(OC)cc1)c1ncccn1", "CP297", -1),
    ("Cc1c(C(N)=O)cc([N+](=O)[O-])cc1[N+](=O)[O-]", "CP297", -1),
    ("CCCCCCCCCCCCCCCCCC(=O)OCC(O)CO (stereo unspecified)", "CP297", -1),
]

IN: Which result was noted for this molecule in the test: CCCCCCc1ccc(O)cc1O
OUT: -1

IN: Which result was noted for this molecule in the test: Cc1c2oc3c(C)ccc(C(=O)N[C@@H]4C(=O)N[C@H](C(C)C)C(=O)N5CCC[C@H]5C(=O)N(C)CC(=O)N(C)[C@@H](C(C)C)C(=O)O[C@@H]4C)c3nc-2c(C(=O)N[C@@H]2C(=O)N[C@H](C(C)C)C(=O)N3CCC[C@H]3C(=O)N(C)CC(=O)N(C)[C@@H](C(C)C)C(=O)O[C@@H]2C)c(N)c1=O (I: T[dV]P[Sar][NMeV] / II: T[dV]P[Sar][NMeV]; ester I:1-I:C, II:1-II:C; linker I:N-II:N via Actinocin(9to1))
OUT: 1

IN: Which result was noted for this molecule in the test: CCOC(=O)c1cccc(N)c1
OUT: 1
